- procedure_summary: qHTS assay to identify small molecule agonists of the TGF-beta/Smad signaling pathway - cell viability counter screen (AID 1346829); note: nearly all actives have a fitted effect of over 45% in size
- measurement_context: SBE-bla HEK293T viability, CellTiter-Glo luminescence, 5 h; series mostly up to 76.8 µM
Results filed as inconclusive are left out. Calls of active or inactive are those of the source. Calls come from the whole dose curve; as a rule, active = well fitted cell-killing curve with a large enough effect in the repeat runs; inconclusive = weak or mixed curves, or effect the other way; inactive = flat fitted curve, though single readings scatter.
Please state which outcome applies, choosing from class 1 = active, class 0 = inactive

Some solved entries appear below for comparison.
{"columns": ["molecule", "class_assignment"],
 "data": [
  ["CCS(=O)(=O)c1cccnc1S(=O)(=O)NC(=O)Nc1nc(OC)cc(OC)n1", "class 0"],
  ["CC(O)C#N (centres undefined)", "class 0"],
  ["Oc1ccc(I)cc1", "class 0"],
  ["CC(C)Oc1cccc(NC(=O)c2ccccc2C(F)(F)F)c1", "class 0"]
]}

Task item: Answer briefly: the call reported for Clc1ccc(CSC(Cn2ccnc2)c2ccc(Cl)cc2Cl)cc1 (centres undefined) in this assay.
Reply: class 0

Task item: What classification did `CCCCCCCCCC[N+](C)(C)CCCCCCCCCC` end up with in this test?
Reply: class 1

Task item: What did this assay record as the result for `Nc1ccccc1C(=O)Oc1ccc2ccccc2c1` ?
Reply: class 0

Task item: How did this test come out for `N#CCCSCCC#N` ?
Reply: class 0

Task item: Record lookup: outcome of this test for `[Hg+2].[I-].[I-]` ?
Reply: class 1

Task item: Hi, sorry to bother you, what did the test record for `Clc1ccc(C(Cl)(Cl)Cl)c(Cl)c1` ?
Reply: class 0

Task item: // return assay outcome for `CC(=[OH+])/C=C(/C)[O-].CC(=[OH+])/C=C(\C)[O-].CC(=[OH+])/C=C(\C)[O-].[Fe]`
Reply: class 0

Task item: Please let me know the test result on file for `Cn1[nH]nnc1=S` .
Reply: class 0

Task item: Recorded test outcome, item `O=[N+]([O-])c1cc(Cl)ccc1Cl`
Reply: class 0

Task item: Hello, I am checking results. What call was entered for `COc1cc(C=O)cc2c1[C@H](COC(N)=O)[C@]1(OC(C)=O)ON2C[C@H]2[C@@H]1N2C(C)=O` ?
Reply: class 0

Task item: # fetch the recorded call for `CC(=O)Nc1ccc2c(c1)Cc1ccccc1-2` here
Reply: class 0

Task item: Any idea what this test logged for `Cc1ccc(C(=O)Cl)cc1` ?
Reply: class 0

Task item: In this assay, the call recorded for `CCOP(=S)(OCC)SCS(=O)(=O)C(C)(C)C` was what?
Reply: class 0

Task item: Tell me the assay call for COc1cc(N)c(Cl)cc1C(=O)NC1CN2CCC1CC2 (centres undefined) please.
Reply: class 0

Task item: Test call for this molecule, please: CC1(C)CC/C(=C/c2ccc(Cl)cc2)C1(O)Cn1cncn1 (centres undefined)
Reply: class 0

Task item: Lab log entry: `Fc1ccc(Oc2ccnc3cc(Cl)cc(Cl)c23)cc1` — outcome as called in the assay?
Reply: class 0

Reference source for all entries: PubChem BioAssay (Tox21)
